Where these numbers come from: the Kinase Knowledgebase extract (Sharma et al. 2016)

target: EGFR (human); settings: a431
Provide the recorded IC50 for the entries that follow.
The reply should read as a number followed by its unit.

Prompt line: Request the reported IC50 associated with COc1cc2ncnc(N[C@H](COC(C)=O)c3ccccc3)c2cc1OC
Response line: 1310 nM

Prompt line: Now give it for COc1cc2ncnc(N[C@H](CO)c3ccccc3)c2cc1OC too.
Response line: 800 nM

====

target: EGFR (human) (UniProt P00533); details: difi
Sequence (P00533 whole entry, looked up): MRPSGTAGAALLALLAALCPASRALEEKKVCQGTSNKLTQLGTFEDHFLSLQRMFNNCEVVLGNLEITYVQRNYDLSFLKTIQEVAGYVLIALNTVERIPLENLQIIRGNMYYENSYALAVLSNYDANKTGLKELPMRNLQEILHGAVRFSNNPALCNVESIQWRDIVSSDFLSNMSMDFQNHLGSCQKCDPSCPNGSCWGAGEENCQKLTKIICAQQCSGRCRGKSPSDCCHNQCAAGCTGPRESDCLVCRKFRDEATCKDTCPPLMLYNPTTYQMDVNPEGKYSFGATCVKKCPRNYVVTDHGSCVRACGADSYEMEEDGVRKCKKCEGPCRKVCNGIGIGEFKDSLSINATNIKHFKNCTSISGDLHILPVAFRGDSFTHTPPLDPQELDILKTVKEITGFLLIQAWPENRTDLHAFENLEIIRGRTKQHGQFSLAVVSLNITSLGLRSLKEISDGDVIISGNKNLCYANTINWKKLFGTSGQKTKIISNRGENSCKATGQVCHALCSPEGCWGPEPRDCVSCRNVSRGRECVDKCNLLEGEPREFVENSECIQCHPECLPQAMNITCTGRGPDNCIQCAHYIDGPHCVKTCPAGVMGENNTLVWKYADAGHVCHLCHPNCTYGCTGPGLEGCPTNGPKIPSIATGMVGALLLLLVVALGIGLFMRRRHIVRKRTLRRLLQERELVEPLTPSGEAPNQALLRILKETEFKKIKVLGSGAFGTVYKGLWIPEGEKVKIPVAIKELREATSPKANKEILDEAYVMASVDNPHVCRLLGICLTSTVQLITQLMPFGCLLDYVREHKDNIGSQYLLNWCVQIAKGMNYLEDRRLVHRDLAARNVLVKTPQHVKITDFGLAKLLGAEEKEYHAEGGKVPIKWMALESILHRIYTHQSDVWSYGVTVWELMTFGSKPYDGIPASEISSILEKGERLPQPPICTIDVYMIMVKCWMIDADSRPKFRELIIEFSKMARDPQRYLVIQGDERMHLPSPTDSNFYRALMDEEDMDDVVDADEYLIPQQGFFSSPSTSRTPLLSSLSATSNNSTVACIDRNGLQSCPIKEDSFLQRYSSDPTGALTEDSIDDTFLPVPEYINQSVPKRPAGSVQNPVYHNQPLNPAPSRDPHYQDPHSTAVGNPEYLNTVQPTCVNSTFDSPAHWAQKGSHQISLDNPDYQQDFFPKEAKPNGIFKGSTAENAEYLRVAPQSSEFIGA
assay_endpoint: IC50 (µM)
Report the figure in µM without appending any unit label.

Prompt line: # get_value(readout='IC50', item= COc1cc2c(cc1OC)Oc1ncnc(Oc3ccc(F)c(Cl)c3)c1NC2 )
Response line: 6.1
